- Experimental Target: T1, Recombinant WNV-E protein ectodomain (West Nile virus, UniProt Q9Q6P4 291-700)
- T1 construct: extracellular domain; also called rWNV-E; WNE
- T1 sequence (looked up): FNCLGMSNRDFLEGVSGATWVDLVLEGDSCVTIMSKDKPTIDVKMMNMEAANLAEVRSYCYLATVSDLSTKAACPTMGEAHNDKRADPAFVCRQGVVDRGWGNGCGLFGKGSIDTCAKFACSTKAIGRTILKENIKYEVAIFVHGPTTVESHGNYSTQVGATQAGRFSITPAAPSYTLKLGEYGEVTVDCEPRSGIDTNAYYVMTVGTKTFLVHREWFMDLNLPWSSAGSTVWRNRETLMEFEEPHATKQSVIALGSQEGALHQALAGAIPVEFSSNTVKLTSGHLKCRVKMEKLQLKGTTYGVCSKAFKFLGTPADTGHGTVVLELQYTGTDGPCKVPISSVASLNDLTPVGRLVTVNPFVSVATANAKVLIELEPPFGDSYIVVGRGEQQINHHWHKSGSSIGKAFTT
- Experimental Details: SPR (Biacore 3000); scFv on NTA chip via His tag, rWNV-E in solution
Parameter Measured: Kd (nM)
Field: numeric (nM). Do not append units.

[
  {
    "Binder": "scFv 10 (scFv, not shown: small tags and cut ends, also called 10 scFv; antibody 10) scFv: MAQVQLVQSGAEVKKPGSSVKVSCKASGYTFSGYSTHWLRQVPGQGLEWIGWDNPSSGDTTYAENFRGRVTLTRDTSITTDYLEVRGLRSDDTAVYYCARGGDDYSFDHWGQGTLVTVSSSGGGSGGGGSGGGGSQTVVTQEPSFSVSPGGTITLTCGLSSGSVFTSYYPSWYQQTPGQAPRTLIYSTNTRSSGVPDRFSGSILGNKAALTITGAQADDESDYYCVLYMGSGIGVFGTGTKVTVLGQPKAAPSAAAEQKLISEEDL",
    "Parameter Measured": "Kd",
    "Assay Value": 37.8
  },
  {
    "Binder": "scFv 73 (scFv, also called 73 scFv; antibody 73) scFv: MAQVQLVQSGAEVKKPGASVKVSCKASGYTFSGYSTHWLRQVPGQGLEWIGWDNPSSGDTTYAENFRGRVTLTRDTSITTDYLEVRGLRSDDTAVYYCARGGDDYSFDHWGQGTLVTVSSGGGGSGGGGSGGGGSSYELTQPPSASGTPGQRVTISCSGSSSNIGSNTVNWYQQLPGTAPKLLIYSNNQRPSGVPDRFSGSKSGTSASLAISGLQSEDEADYYCAAWDARLTGPLFGGGTKLSVLRQPKAAPSAAAEQKLISEEDL",
    "Parameter Measured": "Kd",
    "Assay Value": 4.35
  }
]

Proceeding to the next binder to report its Kd.
Challenge: Kd for scFv 84 (scFv, also called 84 scFv; antibody 84) scFv: MAQVQLVQSGAEVKKPGASVKVSCKASGYTFSGYSTHWLRQVPGQGLEWIGWDNPSSGDTTYAENFRGRVTLTRDTSITTDYLEVRGLRSDDTAVYYCARGGDDYSFDHWGQGTLVTVSSGGGGSGGGGSGGGGSQSVLTQPPSVSVAPGKTARIPCGGNNSGTKSVHWYQQKPGQAPVLVIYDDRVRPSGIPERFSGSNSGDTATLTISRVAAGDEADYYCQVSDGSGDPPTWVFGGGTRLTVLGQPKAAPSAAAEQKLISEEDL ?
Response given: 37.8

Where do the numbers come from? From patent US20090130123A1.
